Biological target: T1, IFN-γ receptor (IFNGR; IFNGR1 and IFNGR2) on human cells (human, UniProt P15260 18-489; P38484 22-337)
T1 sequence (looked up) 1: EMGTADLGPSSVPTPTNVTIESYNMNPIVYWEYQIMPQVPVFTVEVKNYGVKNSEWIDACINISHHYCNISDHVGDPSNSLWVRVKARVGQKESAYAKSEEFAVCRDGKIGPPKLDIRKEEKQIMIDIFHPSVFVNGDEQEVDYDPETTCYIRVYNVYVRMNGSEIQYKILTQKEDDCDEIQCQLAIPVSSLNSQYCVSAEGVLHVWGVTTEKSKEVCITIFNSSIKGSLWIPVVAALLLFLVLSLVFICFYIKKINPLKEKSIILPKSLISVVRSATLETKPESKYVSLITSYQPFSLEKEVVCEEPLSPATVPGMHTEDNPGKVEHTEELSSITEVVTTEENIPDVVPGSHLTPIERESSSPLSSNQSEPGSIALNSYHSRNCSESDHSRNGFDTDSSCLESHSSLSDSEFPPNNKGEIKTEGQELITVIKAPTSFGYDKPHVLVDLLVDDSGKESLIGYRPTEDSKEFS
T1 sequence (looked up) 2: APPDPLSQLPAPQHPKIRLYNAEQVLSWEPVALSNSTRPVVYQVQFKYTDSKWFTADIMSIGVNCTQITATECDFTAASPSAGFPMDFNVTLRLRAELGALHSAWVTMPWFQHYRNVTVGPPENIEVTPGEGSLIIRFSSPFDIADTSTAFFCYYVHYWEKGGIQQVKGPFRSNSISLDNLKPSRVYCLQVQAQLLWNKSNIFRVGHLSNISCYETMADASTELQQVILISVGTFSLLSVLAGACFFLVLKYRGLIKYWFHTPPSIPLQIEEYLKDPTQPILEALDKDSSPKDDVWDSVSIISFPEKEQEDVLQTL
Test: cell-based or functional assay
EC50 (ng/mL)-% pSTAT1, CD14loCD16hi (Non-classical) monocytes of human PBMCs reference
Respond numerically; units are ng/mL and should not be typed.

# binder, measure unit, test result
rows = [
    ("Compound 2, mono-mPEG-MAL-20K-rhIFN-γ-1b-M135C (ligand, Cys135 thioether-linked to linear mPEG-maleimide of about 20,000 daltons (mPEG-MAL-20K), succinimide ring closed, also called mPEG-MAL-20K-M135C-IFN-γ; M135C 20K linear) MQDPYVKEAENLKKYFNAGHSDVADNGTLFLGILKNWKEESDRKIMQSQIVSFYFKLFKNFKDDQSIQKSVETIKEDMNVKFFNSNKKKRDDFEKLTNYSVTDLNVQRKAIHELIQVMAELSPAAKTGKRKRSQCLFRGR", "ng/mL", 0.367),
    ("Compound 3, mono-mPEG2-ru-MAL-20K-rhIFN-γ-1b-M135C (ring closed) (ligand, Cys135 thioether-linked to branched mPEG2-maleimide of about 20,000 daltons (mPEG2-MAL-20K), succinimide ring closed, also called mPEG2-MAL-20K-M135C-IFN-γ; M135C 20K branched (RC)) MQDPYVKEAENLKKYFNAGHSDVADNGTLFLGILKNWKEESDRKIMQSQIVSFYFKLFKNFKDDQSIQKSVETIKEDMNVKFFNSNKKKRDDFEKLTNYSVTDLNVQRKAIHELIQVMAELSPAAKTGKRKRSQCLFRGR", "ng/mL", 4.84),
]

Field EC50 (ng/mL)-% pSTAT1, CD14loCD16hi (Non-classical) monocytes of human PBMCs (entry Compound 1, mono-mPEG-MAL-10K-rhIFN-γ-1b-M135C (ligand, Cys135 thioether-linked to linear mPEG-maleimide of about 10,000 daltons (mPEG-MAL-10K), succinimide ring closed, also called mPEG-MAL-10K-M135C-IFN-γ; M135C 10K linear) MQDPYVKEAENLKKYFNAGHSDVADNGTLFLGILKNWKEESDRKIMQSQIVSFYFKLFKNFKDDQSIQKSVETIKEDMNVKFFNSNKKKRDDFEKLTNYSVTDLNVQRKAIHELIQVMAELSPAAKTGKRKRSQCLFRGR ) reads 0.106

Field EC50 (ng/mL)-% pSTAT1, CD14loCD16hi (Non-classical) monocytes of human PBMCs (entry rhIFN-γ-1b (wild-type recombinant human interferon-γ-1b) (ligand, also called wt (rhIFN-γ-1b); WT IFN-γ-1b (Actimmune)) MQDPYVKEAENLKKYFNAGHSDVADNGTLFLGILKNWKEESDRKIMQSQIVSFYFKLFKNFKDDQSIQKSVETIKEDMNVKFFNSNKKKRDDFEKLTNYSVTDLNVQRKAIHELIQVMAELSPAAKTGKRKRSQMLFRGR ) reads 0.018
